# Tested on: HUVEC cells
# protocolSummary: CellTiter-Glo luminescent cell viability assay
# Assay type: cell-based, human
# measurementSetup: Homo sapiens, HUVEC, 72 h, HUVEC (primary); natural C, methanol; 72 h; read-out: IC50 inhibition of cell proliferation
pIC50: −log10 of the molar value.

# compound, pIC50
rows = [
    ("CO[C@H](CC(=O)O)[C@@H](C)C(=O)[C@H](C)/C=C(\\C)[C@H]1OC(=O)[C@H](O)[C@H](O)/C=C/[C@H](C)CCC[C@@H]1C [Carolacton, carolacton]", 4.32),
]

* * *

# experimentalTarget: ecFoID (Escherichia coli, UniProt P24186)
# Construct: His-tag (vector pHis-TEV); made in house; host or cells: E. coli BL21 (DE3)
# protocolSummary: FoID cyclohydrolase (CYH) enzyme assay
# Format: biochemical, E. coli

# smi, experimentalTarget, unitAbbrev, IC50
measured = [
    ("CO[C@H](CC(=O)O)[C@@H](C)C(=O)[C@H](C)/C=C(\\C)[C@H]1OC(=O)[C@H](O)[C@H](O)/C=C/[C@H](C)CCC[C@@H]1C", "ecFoID (Escherichia coli, UniProt P24186)", "nM", 49.8),
]

* * *

# experimentalTarget: ecFoID (Escherichia coli)

# smi, Kd [nM]
rows = [
    ("CO[C@H](CC(=O)O)[C@@H](C)C(=O)[C@H](C)/C=C(\\C)[C@H]1OC(=O)[C@H](O)[C@H](O)/C=C/[C@H](C)CCC[C@@H]1C", 10),
]
